Test: CARIV-A-001 Part A: single ascending IV doses over 20 minutes in healthy subjects
Format: in vivo, human
Settings: both sexes, human, plasma, iv, 3.5 mg/kg, IV over 20 minutes, 3.5 mg/kg; read-out: Volume of Distribution (Vd), Range
Method: This study was conducted in healthy male or female volunteers, at a single site to assess the safety and PK profile of an IV formulation of Carbaglu and to determine the absolute bioavailability of the current marketed oral formulation of Carbaglu. The levels of CGA in plasma and urine were analysed using a fully validated method, which included LC-MS/MS analysis. The PK data were analysed based on a non-compartmental model. […]
observationType: Vd

Query :: Could you please provide reported Vd for NC(=O)N[C@@H](CCC(=O)O)C(=O)O ? Thanks!
Result :: 3.26 to 15.5 L/kg

* * *

Experiment: CARIV-A-001 Part B: cross-over IV infusion over 2 hours vs oral tablet 100 mg/kg in healthy subjects
Type: in vivo, human
Conditions: both sexes, human, plasma, oral, 100 mg/kg, OR, 100 mg/kg, N 12; read-out: CL/F, Mean (converted)
observationType: CL/F (mL/min/kg)
Numbers only, in mL/min/kg.

Query :: Could you please provide reported CL/F for NC(=O)N[C@@H](CCC(=O)O)C(=O)O ? Thanks!
Result :: 55.6

* * *

Assay: CARIV-A-001 Part A: single ascending IV doses over 20 minutes in healthy subjects
Type: in vivo, human
Conditions: both sexes, human, plasma, iv, 7.5 mg/kg, IV over 20 minutes, 7.5 mg/kg; read-out: T1/2, Range
observationType: half-life

Query :: Could you please provide reported half-life for NC(=O)N[C@@H](CCC(=O)O)C(=O)O ? Thanks!
Result :: 918 to 2120 min

* * *

Experiment: CARIV-A-001 Part A: single ascending IV doses over 20 minutes in healthy subjects
Format: in vivo, human
Conditions: both sexes, human, plasma, iv, 5 mg/kg, IV over 20 minutes, 5.0 mg/kg; read-out: AUClast-timepoint, Median
observationType: AUC(0-t)
Answer shape: numeric part, then the unit.

Query :: Could you please provide reported AUC(0-t) for NC(=O)N[C@@H](CCC(=O)O)C(=O)O ? Thanks!
Result :: 15600 ng·h/mL

* * *

Test: CARIV-A-001 Part A: single ascending IV doses over 20 minutes in healthy subjects
Format: in vivo, human
Conditions: both sexes, human, plasma, iv, 5 mg/kg, IV over 20 minutes, 5.0 mg/kg; read-out: Clearance (Cl), Mean
Method: This study was conducted in healthy male or female volunteers, at a single site to assess the safety and PK profile of an IV formulation of Carbaglu and to determine the absolute bioavailability of the current marketed oral formulation of Carbaglu. The levels of CGA in plasma and urine were analysed using a fully validated method, which included LC-MS/MS analysis. The PK data were analysed based on a non-compartmental model. […]
observationType: clearance (mL/min/kg)
Numbers only, in mL/min/kg.

Query :: Could you please provide reported clearance for NC(=O)N[C@@H](CCC(=O)O)C(=O)O [carglumic acid, N-carbamoyl-L-glutamic acid] ? Thanks!
Result :: 5.33

* * *

Assay: CARIV-A-001 Part A: single ascending IV doses over 20 minutes in healthy subjects
Assay type: in vivo, human
Conditions: both sexes, human, plasma, iv, 3.5 mg/kg, IV over 20 minutes, 3.5 mg/kg; read-out: AUCinf, Mean
observationType: AUC(0-inf) (ng·h/mL)
One number for each entry, in ng·h/mL.

Query :: Could you please provide reported AUC(0-inf) for NC(=O)N[C@@H](CCC(=O)O)C(=O)O [carglumic acid, N-carbamoyl-L-glutamic acid] ? Thanks!
Result :: 11000
